target: BACE2 (Rattus norvegicus, UniProt Q6IE75); construct: endogenous cellular BACE2 in the Ins1e rat cell line; endogenous in cells; test: Assay for BACE inhibition by measuring cellular TMEM27 cleavage (INS-TMEM27 cells, ELISA of shed TMEM27); details: inhibition of human TMEM27 cleavage by endogenous cellular BACE2 in INS1e-derived INS-TMEM27 rat cell line; ELISA of shed TMEM27 in supernatant
Sequence (Q6IE75 63-514): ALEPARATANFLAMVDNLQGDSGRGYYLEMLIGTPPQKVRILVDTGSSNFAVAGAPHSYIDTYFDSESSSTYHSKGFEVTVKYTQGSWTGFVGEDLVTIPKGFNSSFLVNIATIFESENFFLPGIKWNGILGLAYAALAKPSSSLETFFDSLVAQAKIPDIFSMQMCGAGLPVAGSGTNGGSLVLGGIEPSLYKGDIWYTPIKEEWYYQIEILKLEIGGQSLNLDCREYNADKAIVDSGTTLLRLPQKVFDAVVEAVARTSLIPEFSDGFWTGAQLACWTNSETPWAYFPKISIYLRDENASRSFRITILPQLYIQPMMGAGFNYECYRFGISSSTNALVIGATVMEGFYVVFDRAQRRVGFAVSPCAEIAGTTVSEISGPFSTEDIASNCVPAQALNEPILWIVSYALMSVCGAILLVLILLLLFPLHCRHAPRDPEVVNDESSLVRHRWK
pIC50: −log10 of the molar value.
observed-property: pIC50

Examples with their reported pIC50 follow.
INSERT INTO results (molecule, readout_number) VALUES
  ('Cc1cc(C(=O)N[C@@H](Cc2ccccc2)[C@H](O)CNCc2cccc(C(F)(F)F)c2)cc(C(=O)N2CCCC2c2ccccc2)c1 (stereo partly shown)', 9.40),
  ('O=C(N[C@@H](Cc1ccccc1)[C@H](O)CNCc1cccc(C(F)(F)F)c1)c1cccc(C(=O)N2CCCC2c2cccs2)c1 (stereo partly shown)', 8.10),
  ('CC(C)(C)C1CCCN1C(=O)c1cccc(C(=O)N[C@@H](Cc2ccccc2)[C@H](O)CNCc2cccc(C(F)(F)F)c2)c1 (stereo partly shown)', 7.25);

a. Cc1cc(C(=O)N[C@@H](Cc2ccccc2)[C@H](O)CNCc2cccc(C(F)(F)F)c2)cc(C(=O)N2CCC[C@@H]2c2nc(C)cs2)c1
b. Cn1ccc(C2CCCN2C(=O)c2cccc(C(=O)N[C@@H](Cc3ccccc3)[C@H](O)CNCc3cccc(C(F)(F)F)c3)c2)n1 (stereo partly shown)
Ask: For the pair a and b , which member has the lower pIC50 number? Answer by quoting the chosen item's label.
Result: a
(a: 6.92, b: 7.20)

A. O=C(N[C@@H](Cc1ccccc1)[C@H](O)CNCc1cccc(OC(F)(F)F)c1)c1cccc(C(=O)N2CCCC2c2ccccc2)c1 (stereo partly shown)
B. O=C(N[C@@H](Cc1ccccc1)[C@H](O)CNCc1cccc(OC(F)(F)F)c1)c1cccc(C(=O)N2CCC(c3ccccn3)C2)c1 (stereo partly shown)
Ask: For the pair A and B , which member has the lower pIC50 number? Answer by quoting the chosen item's label.
Result: B

---

molecular target: BACE2 (Rattus norvegicus, UniProt Q6IE75); construct: endogenous cellular BACE2 in the Ins1e rat cell line; endogenous in cells; host or cells: INS-TMEM27 (INS1e-derived rat beta-cell line with doxycycline-inducible full-length hTMEM27); test: Assay for BACE inhibition by measuring cellular TMEM27 cleavage (INS-TMEM27 cells, ELISA of shed TMEM27); assay type: cell-based; conditions: inhibition of human TMEM27 cleavage by endogenous cellular BACE2 in INS1e-derived INS-TMEM27 rat cell line; ELISA of shed TMEM27 in supernatant
observed-property: IC50 (nM)

INSERT INTO results (molecule, observed_property, reading_unit, readout_number) VALUES
  ('CN(c1cc(C(=O)N[C@@H](Cc2ccccc2)[C@H](O)CNCc2cccc(C(F)(F)F)c2)cc(C(=O)N2CCCC2c2cccs2)c1)S(C)(=O)=O (stereo partly drawn) [Example 53]', 'IC50', 'nM', 29);

1. COc1cccc(CNC[C@@H](O)[C@H](Cc2ccccc2)NC(=O)c2cccc(C(=O)N3CCCC3c3ccccc3)c2)c1 (stereo partly drawn) [Example 22]
2. Cc1cc(C(=O)N[C@@H](Cc2ccccc2)[C@H](O)CNCc2cccc(OC(F)(F)F)c2)cc(C(=O)N2CCC[C@@H]2c2nc(C)cs2)c1 [Example 10]
3. CCc1ccc(C2CCCN2C(=O)c2cccc(C(=O)N[C@@H](Cc3ccccc3)[C@H](O)CNCc3cccc(C(F)(F)F)c3)c2)cc1 (stereo partly drawn) [Example 62]
4. O=C(N[C@@H](Cc1ccccc1)[C@H](O)CNCc1cccc(C(F)(F)F)c1)c1cccc(C(=O)N2CCCC2c2cccnc2)c1 (stereo partly drawn) [Example 13]
5. Cc1cc(C2CCCN2C(=O)c2cccc(C(=O)N[C@@H](Cc3ccccc3)[C@H](O)CNCc3cccc(OC(F)(F)F)c3)c2)on1 (stereo partly drawn) [Example 26]
Ask: // smallest IC50 at index 0, largest at the end Kindly provide the labels arranged according to the requested ordering.
Result: 2, 1, 4, 5, 3

---

biological target: BACE2 (Rattus norvegicus, UniProt Q6IE75); construct: endogenous cellular BACE2 in the Ins1e rat cell line; endogenous in cells; assay: Assay for BACE inhibition by measuring cellular TMEM27 cleavage (INS-TMEM27 cells, ELISA of shed TMEM27); settings: inhibition of human TMEM27 cleavage by endogenous cellular BACE2 in INS1e-derived INS-TMEM27 rat cell line; ELISA of shed TMEM27 in supernatant
pIC50: −log10 of the molar value.
observed-property: pIC50

Examples with their reported pIC50 follow.
INSERT INTO assay_data (compound, observed_property, readout_number) VALUES
  ('CN(Cc1ccccn1)C(=O)c1cccc(C(=O)N[C@@H](Cc2ccccc2)[C@H](O)CNCc2cccc(OC(F)(F)F)c2)c1', 'pIC50', 6.95),
  ('O=C(N[C@@H](Cc1ccccc1)[C@H](O)CNCc1cccc(C(F)(F)F)c1)c1cccc(C(=O)N2CCCC2c2ccncc2)c1 (stereo partly shown)', 'pIC50', 6.85),
  ('CCn1cc(CNC[C@@H](O)[C@H](Cc2ccccc2)NC(=O)c2cc(C)cc(C(=O)N(C)Cc3nc(C)cs3)c2)cn1', 'pIC50', 6.98),
  ('CCn1cc(CNC[C@@H](O)[C@H](Cc2ccccc2)NC(=O)c2cc(C(=O)N3CCCC3c3ccccc3)cc(N(C)S(C)(=O)=O)c2)cn1 (stereo partly shown)', 'pIC50', 9.70);

I. Cc1cc(C2CCCN2C(=O)c2cccc(C(=O)N[C@@H](Cc3ccccc3)[C@H](O)CNCc3cccc(C(F)(F)F)c3)c2)ccc1Cl (stereo partly shown)
II. O=C(NCc1ccccn1)c1cccc(C(=O)N[C@@H](Cc2ccccc2)[C@H](O)CNCc2cccc(C(F)(F)F)c2)c1
Ask: For the pair I and II , which member has the lower pIC50 number? Answer by quoting the chosen item's label.
Result: II

---

target: BACE2 (Rattus norvegicus, UniProt Q6IE75); construct: endogenous cellular BACE2 in the Ins1e rat cell line; endogenous in cells; experiment: Assay for BACE inhibition by measuring cellular TMEM27 cleavage (INS-TMEM27 cells, ELISA of shed TMEM27); settings: inhibition of human TMEM27 cleavage by endogenous cellular BACE2 in INS1e-derived INS-TMEM27 rat cell line; ELISA of shed TMEM27 in supernatant
observed-property: IC50 (nM)

Examples with their reported IC50 follow.
INSERT INTO measurements (compound, tested_on, readout_number) VALUES
  ('O=C(N[C@@H](Cc1ccccc1)[C@H](O)CNCc1cccc(C(F)(F)F)c1)c1cccc(C(=O)N2CCCC2C(=O)c2ccccc2)c1 (stereo partly drawn)', 'BACE2 (Rattus norvegicus, UniProt Q6IE75)', 484),
  ('COc1cccc(CNC[C@@H](O)[C@H](Cc2ccccc2)NC(=O)c2cccc(C(=O)N(C)Cc3ccccn3)c2)c1', 'BACE2 (Rattus norvegicus, UniProt Q6IE75)', 511),
  ('Cc1cc(C(=O)N[C@@H](Cc2ccccc2)[C@H](O)CNCc2cccc(C(F)(F)F)c2)cc(C(=O)N(C)Cc2ccccn2)c1', 'BACE2 (Rattus norvegicus, UniProt Q6IE75)', 95),
  ('Cc1cc(C(=O)N[C@@H](Cc2ccccc2)[C@H](O)CNCc2cccc(OC(F)(F)F)c2)cc(C(=O)N(C)Cc2ccccn2)c1', 'BACE2 (Rattus norvegicus, UniProt Q6IE75)', 49),
  ('O=C(N[C@@H](Cc1ccccc1)[C@H](O)CNCc1cccc(C(F)(F)F)c1)c1cccc(C(=O)N2CCCC2c2ccccc2)c1 (stereo partly drawn)', 'BACE2 (Rattus norvegicus, UniProt Q6IE75)', 75);

I. COc1ccc(C2CCCN2C(=O)c2cccc(C(=O)N[C@@H](Cc3ccccc3)[C@H](O)CNCc3cccc(C(F)(F)F)c3)c2)cc1 (stereo partly drawn)
II. Cc1csc([C@H]2CCCN2C(=O)c2cc(C(=O)N[C@@H](Cc3ccccc3)[C@H](O)CNCc3cccc(OC(F)(F)F)c3)cc(N(C)S(C)(=O)=O)c2)n1
Ask: Which value of IC50 is numerically greater: that of I or that of II ? Answer by quoting the chosen item's label.
Result: I
(I: 115 nM, II: 0.1 nM)

a. CCn1cc(CNC[C@@H](O)[C@H](Cc2ccccc2)NC(=O)c2cccc(C(=O)N3CCCC3c3cccs3)c2)cn1 (stereo partly drawn)
b. O=C(N[C@@H](Cc1ccccc1)[C@H](O)CNCc1cccc(C(F)(F)F)c1)c1cccc(C(=O)N2CCCC2c2cccc(F)c2)c1 (stereo partly drawn)
c. CCn1cc(CNC[C@@H](O)[C@H](Cc2ccccc2)NC(=O)c2cccc(C(=O)N3CCCC3c3ccccc3)c2)cn1 (stereo partly drawn)
d. O=C(N[C@@H](Cc1ccccc1)[C@H](O)CNCc1cccc(C(F)(F)F)c1)c1cccc(C(=O)N2CCCC2C2CCCCC2)c1 (stereo partly drawn)
Ask: Hello, I need these entries ordered by IC50, highest reading first. Thanks! Kindly provide the labels arranged according to the requested ordering.
Result: a, c, d, b
(a: 239 nM, c: 57.7 nM, d: 7 nM, b: 2 nM)

A. Cc1csc(CN(C)C(=O)c2cc(C(=O)N[C@@H](Cc3ccccc3)[C@H](O)CNCc3cncc(C(C)(C)F)c3)cc(N(C)S(C)(=O)=O)c2)n1
B. Cc1cc(C(=O)N[C@@H](Cc2ccccc2)[C@H](O)CNCc2cccc(OC(F)(F)F)c2)cc(C(=O)N(C)Cc2nc(C)cs2)c1
Ask: For the pair A and B , which member has the lower IC50 number? Answer by quoting the chosen item's label.
Result: B
(B: 117 nM, A: 255 nM)

P. COc1cccc(CNC[C@@H](O)[C@H](Cc2ccccc2)NC(=O)c2cccc(C(=O)N3CCC[C@@H]3c3nc(C)cs3)c2)c1
Q. CCn1cc(CNC[C@@H](O)[C@H](Cc2ccccc2)NC(=O)c2cc(C(=O)N3CCCC3c3cccs3)cc(N(C)S(C)(=O)=O)c2)cn1 (stereo partly drawn)
R. Cc1cccc(C2CCCN2C(=O)c2cccc(C(=O)N[C@@H](Cc3ccccc3)[C@H](O)CNCc3cccc(C(F)(F)F)c3)c2)c1 (stereo partly drawn)
S. Cc1csc(CN(C)C(=O)c2cccc(C(=O)N[C@@H](Cc3ccccc3)[C@H](O)CNCc3cccc(OC(F)(F)F)c3)c2)n1
T. O=C(N[C@@H](Cc1ccccc1)[C@H](O)CNCc1cccc(OC(F)(F)F)c1)c1cccc(C(=O)N2CCCC2c2ccncc2)c1 (stereo partly drawn)
Ask: // smallest IC50 at index 0, largest at the end Kindly provide the labels arranged according to the requested ordering.
Result: Q, R, P, S, T

A. O=C(N[C@@H](Cc1ccccc1)[C@H](O)CNCc1cccc(OC(F)(F)F)c1)c1cccc(C(=O)N2CCCC2c2cccs2)c1 (stereo partly drawn)
B. Cc1noc(C2CCCN2C(=O)c2cccc(C(=O)N[C@@H](Cc3ccccc3)[C@H](O)CNCc3cccc(C(F)(F)F)c3)c2)n1 (stereo partly drawn)
Ask: Which value of IC50 is numerically greater: that of A or that of B ? Answer by quoting the chosen item's label.
Result: B
(B: 213 nM, A: 138 nM)
